assayedTarget: T1, CD96 (UniProt P40200 22-585, limits assumed)
T1 construct: whole, on cells
T1 sequence (looked up): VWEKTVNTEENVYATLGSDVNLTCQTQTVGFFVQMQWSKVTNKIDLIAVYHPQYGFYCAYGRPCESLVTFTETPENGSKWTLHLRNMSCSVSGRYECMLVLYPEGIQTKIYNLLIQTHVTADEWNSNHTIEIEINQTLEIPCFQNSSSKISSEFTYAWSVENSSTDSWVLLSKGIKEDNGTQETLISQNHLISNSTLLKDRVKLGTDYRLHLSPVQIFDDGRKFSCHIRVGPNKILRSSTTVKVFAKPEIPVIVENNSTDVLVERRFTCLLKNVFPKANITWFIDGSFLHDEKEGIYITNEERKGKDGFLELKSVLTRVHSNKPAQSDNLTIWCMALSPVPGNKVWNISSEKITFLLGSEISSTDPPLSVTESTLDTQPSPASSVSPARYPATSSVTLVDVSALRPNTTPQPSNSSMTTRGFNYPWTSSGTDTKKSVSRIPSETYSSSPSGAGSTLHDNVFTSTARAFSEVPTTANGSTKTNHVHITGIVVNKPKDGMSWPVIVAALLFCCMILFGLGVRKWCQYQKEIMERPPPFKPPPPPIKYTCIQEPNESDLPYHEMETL
assaySummary: flow cytometry, Fc fusion at 100 nM, CD96-transfected cells
reportedMetric: MFI at 100 nM (MFI)
Give just the numeric value; MFI need not be written.

Field: example entries. Status: answers known.
- binder: "variant CD155 IgV-Fc S52R/Q62F/L104Q/G111R (Fc fusion, not shown: a dimerising Fc or GST) WPPPGTGDVVVQAPTQVPGFLGDSVTLPCYLQVPNMEVTHVSQLTWARHGERGSMAVFHQTFGPSYSESKRLEFVAARLGAELRNASLRMFGLRVEDEGNYTCQFVTFPQRSRSVDIWLRVL"
  experimentalResult: 2360
- binder: "variant CD155 IgV-Fc Q62F (Fc fusion, not shown: a dimerising Fc or GST) WPPPGTGDVVVQAPTQVPGFLGDSVTLPCYLQVPNMEVTHVSQLTWARHGESGSMAVFHQTFGPSYSESKRLEFVAARLGAELRNASLRMFGLRVEDEGNYTCLFVTFPQGSRSVDIWLRVL"
  experimentalResult: 2760

The reported MFI at 100 nM of the binder variant CD155 IgV-Fc S42C/S52L (Fc fusion, not shown: a dimerising Fc or GST) WPPPGTGDVVVQAPTQVPGFLGDSVTLPCYLQVPNMEVTHVCQLTWARHGELGSMAVFHQTQGPSYSESKRLEFVAARLGAELRNASLRMFGLRVEDEGNYTCLFVTFPQGSRSVDIWLRVL was 1480

The reported MFI at 100 nM of the binder variant CD155 IgV-Fc T45Q/S52L/L104E/G111R (Fc fusion, not shown: a dimerising Fc or GST) WPPPGTGDVVVQAPTQVPGFLGDSVTLPCYLQVPNMEVTHVSQLQWARHGELGSMAVFHQTQGPSYSESKRLEFVAARLGAELRNASLRMFGLRVEDEGNYTCEFVTFPQRSRSVDIWLRVL was 1580
